experiment: HILIC, Waters ACQUITY UPLC BEH Amide, 150 × 2.1 mm, 1.7 µm, 40 °C, 0.5 mL/min, estimated dead time 0.66 min; A: 5% water + 95% acetonitrile; B: 70% water + 30% acetonitrile + 10 mM ammonium formate, pH 6.5; gradient (min/%B) 0/0 2/0 20/70 23/70 24/0 31/0; settings: stereoisomer not certain
Parameter Measured: LC retention time (min)
Quick note: give the figure in min, leave out the unit.

Prompt: LC retention time lookup needed for CC(C)C(N)C(=O)O (configuration not stated) , thanks.
Response: 8.75

Prompt: LC retention time lookup needed for CN(C)c1ccc(N)cc1 , thanks.
Response: 0.91

Prompt: LC retention time lookup needed for C[N+](C)(C)CCO , thanks.
Response: 7.51

Prompt: LC retention time lookup needed for O=C1CC(C(=O)[O-])NC(=O)N1 (configuration not stated) [DIHYDROOROTATE] , thanks.
Response: 7.2

Prompt: LC retention time lookup needed for NC(N)=NCCCC(=O)O [4-GUANIDINOBUTANOATE] , thanks.
Response: 10.1

Prompt: LC retention time lookup needed for CSc1ncnc2nc[nH]c12 , thanks.
Response: 1.08

Prompt: LC retention time lookup needed for C[n+]1cccc(C(N)=O)c1 [1-METHYLNICOTINAMIDE] , thanks.
Response: 8.27

Prompt: LC retention time lookup needed for CC(=O)NC(Cc1c[nH]c2ccccc12)C(=O)O (configuration not stated) , thanks.
Response: 2.78

Prompt: LC retention time lookup needed for NC1C(O)OC(CO)C(O)C1O (configuration not stated) , thanks.
Response: 11.3

Prompt: LC retention time lookup needed for O=c1cccc(O)[nH]1 [2,6-DIHYDROXYPYRIDINE] , thanks.
Response: 4.81

Prompt: LC retention time lookup needed for OCC1OC(OC2(CO)OC(CO)C(O)C2O)C(O)C(O)C1O (configuration not stated) , thanks.
Response: 10.2

Prompt: LC retention time lookup needed for CC12CCC(=O)C=C1CCC1C2CCC2(C)C1CCC2(O)C(=O)CO (configuration not stated) [CORTEXOLONE] , thanks.
Response: 0.83

Prompt: LC retention time lookup needed for NCCc1ccccc1 , thanks.
Response: 7

Prompt: LC retention time lookup needed for CC1NC(=O)NC1CCCCCC(=O)O (configuration not stated) , thanks.
Response: 2.6

Prompt: LC retention time lookup needed for CC(O)C(N)C(=O)O (configuration not stated) , thanks.
Response: 10.5

Prompt: LC retention time lookup needed for O=C(O)Cc1c[nH]c2ccc(O)cc12 [5-HYDROXYINDOLEACETATE] , thanks.
Response: 1.37

Prompt: LC retention time lookup needed for CC(=O)NCCCCN , thanks.
Response: 8.45

Prompt: LC retention time lookup needed for CNC(CCC(=O)O)C(=O)O (configuration not stated) [N-METHYLGLUTAMATE] , thanks.
Response: 11.1

Prompt: LC retention time lookup needed for O=C1CCNC(=O)N1 [DIHYDROURACIL] , thanks.
Response: 1.45

Prompt: LC retention time lookup needed for O=CC(O)C1OC(=O)C(O)C1O (configuration not stated) , thanks.
Response: 1.86

Prompt: LC retention time lookup needed for O=C(O)CCCCCCCCCO [10-HYDROXYDECANOATE] , thanks.
Response: 1

Prompt: LC retention time lookup needed for CC(=O)NCC(=O)O , thanks.
Response: 5.48

Prompt: LC retention time lookup needed for Cc1cc2nc[nH]c2cc1C , thanks.
Response: 0.92

Prompt: LC retention time lookup needed for CCCCCCCCCCCCCC=CC(O)C(COP(=O)([O-])OCC[N+](C)(C)C)NC(=O)CCCCCCCCCCCCCCCCC (configuration not stated) , thanks.
Response: 5.7

Prompt: LC retention time lookup needed for COc1cc(C(O)CO)ccc1O (configuration not stated) [4-HYDROXY-3-METHOXYPHENYLGLYCOL] , thanks.
Response: 1.01

Prompt: LC retention time lookup needed for CC1OC(n2cnc3c(N)ncnc32)C(O)C1O (configuration not stated) , thanks.
Response: 2.4

Prompt: LC retention time lookup needed for NC(=O)C=CC(=O)O [MALEAMATE] , thanks.
Response: 2.1

Prompt: LC retention time lookup needed for N[C@@H](Cc1cc(I)c(Oc2ccc(O)cc2)c(I)c1)C(=O)O , thanks.
Response: 6.98

Prompt: LC retention time lookup needed for CC(=O)NC(CC(C)C)C(=O)O (configuration not stated) , thanks.
Response: 4.22

Prompt: LC retention time lookup needed for NCCS(=O)(=O)O , thanks.
Response: 8.04

Prompt: LC retention time lookup needed for NCCCC(=O)O [GAMMA-AMINOBUTYRATE] , thanks.
Response: 10.2

Prompt: LC retention time lookup needed for NC(Cc1ccccc1)C(=O)O (configuration not stated) , thanks.
Response: 7.87

Prompt: LC retention time lookup needed for COc1cc(CCN)ccc1O , thanks.
Response: 0.84

Prompt: LC retention time lookup needed for CC(=O)NCCCC(=O)[O-] [4-ACETAMIDOBUTANOATE] , thanks.
Response: 3.11

Prompt: LC retention time lookup needed for C[C@H](N)C(=O)O , thanks.
Response: 9.76

Prompt: LC retention time lookup needed for C[N+](C)(C)CCOP(=O)(O)OP(=O)([O-])OCC1OC(n2ccc(N)nc2=O)C(O)C1O (configuration not stated) , thanks.
Response: 13.4

Prompt: LC retention time lookup needed for CN=C(N)N , thanks.
Response: 8
